assay.procedure: Terminal elimination half life in F344/DuCrlCrlj rat at 1 mg/kg, po administered via gavage by LC-MS/MS analysis
Type: ADME, organism-based
Set-up: dose 1 mg/kg, dosed compound name [14C]Rivoglitazone, route oral
particulars: in vivo, read-out: beta t1/2 (converted)
endpoint: half-life
The reply should read as a number followed by its unit.

Report half-life for COc1ccc2nc(COc3ccc(CC4SC(=O)NC4=O)cc3)n(C)c2c1.Cl (racemic) please.
4.5 h

###

assay.procedure: Cmax in F344/DuCrlCrlj rat at 0.5 mg/kg, po administered via gavage by LC-MS/MS analysis
Type: ADME, organism-based
Parameters: dose 0.5 mg/kg, dosed compound name [14C]Rivoglitazone, route oral
particulars: in vivo
endpoint: Cmax (ng/mL)
Express it in ng/mL; write the number only.

# get_value(readout='Cmax', item= COc1ccc2nc(COc3ccc(CC4SC(=O)NC4=O)cc3)n(C)c2c1.Cl (racemic) )
2090
